target: Cks1-Skp2 protein-protein interaction (Homo sapiens, UniProt P61024+Q13309); assay: Cks1-Skp2 protein-protein interaction ELISA; assay type: binding; details: Table 3; read-out: IC50 Cks1-Skp2
Sequence (P61024 whole entry): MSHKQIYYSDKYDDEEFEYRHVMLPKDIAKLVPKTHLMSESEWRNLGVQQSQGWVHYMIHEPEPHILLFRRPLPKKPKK
Sequence (Q13309 whole entry): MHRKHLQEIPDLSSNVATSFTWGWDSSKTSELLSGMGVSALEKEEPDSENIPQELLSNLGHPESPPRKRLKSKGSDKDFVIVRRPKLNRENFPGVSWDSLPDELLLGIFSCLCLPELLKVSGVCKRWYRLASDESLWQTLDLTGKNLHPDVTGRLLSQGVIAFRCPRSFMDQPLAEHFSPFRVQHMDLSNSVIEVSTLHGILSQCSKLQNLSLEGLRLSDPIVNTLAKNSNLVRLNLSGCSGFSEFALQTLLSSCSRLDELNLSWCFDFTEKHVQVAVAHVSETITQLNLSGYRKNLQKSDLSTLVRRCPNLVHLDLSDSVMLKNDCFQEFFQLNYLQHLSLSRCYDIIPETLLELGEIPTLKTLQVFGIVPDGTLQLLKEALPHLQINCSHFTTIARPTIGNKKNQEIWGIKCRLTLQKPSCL
property: pIC50
Please express pIC50 as -log10 of the molar concentration.

Input: Record Cc1ccc(S(=O)(=O)Nc2cc(Oc3cc(F)cc(F)c3)cc3cccnc23)cc1 : what is its pIC50 with Cks1-Skp2 protein-protein interaction (Homo sapiens, UniProt P61024+Q13309)?
Output: 5.45

Input: Do the same for O=S(=O)(Nc1ccc(-c2cccnc2)c2cccnc12)c1cccc(C(F)(F)F)c1 please
Output: 6.77

Input: Do the same for Cc1ccc(S(=O)(=O)Nc2ccc(-c3cccnc3)c3cccnc23)cc1 please
Output: 5.76

Input: Do the same for O=S(=O)(Nc1ccc(-c2ccncc2)c2cccnc12)c1cccnc1 please
Output: 5.92

Input: Do the same for Cc1ccc(S(=O)(=O)Nc2ccc(-c3ccsc3)c3cccnc23)cc1 please
Output: 5.26

Input: Do the same for O=S(=O)(Nc1ccc(-c2cccnc2)c2cccnc12)c1cccnc1 please
Output: 5.78

Input: Do the same for Cc1ccc(S(=O)(=O)Nc2cc(Oc3cccc(C#N)c3)cc3cccnc23)cc1 please
Output: 5.76

Input: Do the same for COc1ccc(Oc2cc(NS(=O)(=O)c3ccc(C)cc3)c3ncccc3c2)cc1 please
Output: 5.94

Input: Do the same for Cc1ccc(S(=O)(=O)Nc2ccc(-c3ccccc3)c3cccnc23)cc1 please
Output: 6.27

Input: Do the same for Cc1ccc(S(=O)(=O)Nc2ccc(-c3ccco3)c3cccnc23)cc1 please
Output: 6.26

Input: Do the same for Cc1ccc(S(=O)(=O)Nc2ccc(-c3cc4ccccc4s3)c3cccnc23)cc1 please
Output: 5.11

----------
target: Cks1-Skp2 protein-protein interaction (Homo sapiens, UniProt P61024+Q13309); experiment: Cks1-Skp2 protein-protein interaction ELISA; assay type: binding; details: ELISA, Cks1 immobilized, Skp1/Skp2 binding detected by anti-Skp2; read-out: Cks1-Skp2 (μM), potency in the interaction assay
property: IC50 (µM)
// note: answer is a bare numeric in µM

Input: Given the entry Cc1ccc(S(=O)(=O)Nc2cc(Oc3cc(F)cc(F)c3)cc3cccnc23)cc1 , report its measured IC50.
Output: 3.57

Input: Do the same for Cc1ccc(S(=O)(=O)Nc2ccc(-c3ccsc3)c3cccnc23)cc1 please
Output: 5.54

Input: Do the same for Cc1ccc(S(=O)(=O)Nc2ccc(Br)c3cccnc23)cc1 please
Output: 0.84

Input: Do the same for Cc1ccc(S(=O)(=O)Nc2ccc(-c3ccco3)c3cccnc23)cc1 please
Output: 0.55

Input: Do the same for Cc1ccc(S(=O)(=O)Nc2cc(Oc3cccc(C#N)c3)cc3cccnc23)cc1 please
Output: 1.74

Input: Do the same for Cc1ccc(S(=O)(=O)Nc2ccc(-c3cc4ccccc4s3)c3cccnc23)cc1 please
Output: 7.84

Input: Do the same for Cc1ccc(S(=O)(=O)Nc2ccc(-c3cccnc3)c3cccnc23)cc1 please
Output: 1.73

Input: Do the same for COc1ccc(Oc2cc(NS(=O)(=O)c3ccc(C)cc3)c3ncccc3c2)cc1 please
Output: 1.15

Input: Do the same for Cc1ccc(S(=O)(=O)Nc2ccc(-c3ccccc3)c3cccnc23)cc1 please
Output: 0.54
